Tested on: Saccharomyces cerevisiae ABC16-Green Monster
Conditions: 18 h; 30 °C; YPD
recorded_metric: log10 IC50 growth inhibition (log10 of the value in µM)
Annotation: log10 of IC50 growth inhibition, µM basis.

| compound | recorded_metric | reported_result |
| --- | --- | --- |
| CC(c1cc(Cl)cc(Cl)c1)N(C)c1ncc2c(N)nc(N)nc2n1 (centres undefined) | log10 IC50 growth inhibition | 1.60 |
| CNCCC(Oc1ccc(C(F)(F)F)cc1)c1ccccc1 (centres undefined) | log10 IC50 growth inhibition | 1.77 |
| COc1cc(C2c3cc4c(cc3C(OC3OC5COC(C)OC5C(O)C3O)C3COC(=O)C23)OCO4)cc(OC)c1O (centres undefined) [Etoposide] | log10 IC50 growth inhibition | 1.37 |
| Cc1ccc(C2Sc3ccccc3N=C3C2=C(O)c2ccccc23)cc1 (centres undefined) | log10 IC50 growth inhibition | 0.69 |
| Cc1cc(Cl)ccc1OCc1nnc(-c2ccccn2)[nH]1 | log10 IC50 growth inhibition | 1.32 |
| COc1ccc(-c2onc(C(F)(F)F)c2-c2ccc(Cl)cc2)c(O)c1 | log10 IC50 growth inhibition | 1.69 |
| O=C(Nc1c(O)cccc1-c1nc2c(C(=O)O)cccc2o1)c1cc(-c2ccccc2)on1 | log10 IC50 growth inhibition | 1.59 |
| Cc1nc2ccccc2nc1SC(C)C(=O)c1c[nH]c2ccccc12 (centres undefined) | log10 IC50 growth inhibition | 1.53 |
| CC(=O)c1ccc(-c2ccc(C(=O)N3CCCc4ccccc43)o2)cc1 | log10 IC50 growth inhibition | 1.72 |
| c1ccc(-c2nc(NC3CCCCC3)cc(C3CC3)n2)nc1 | log10 IC50 growth inhibition | 1.65 |

Lab entry: Saccharomyces cerevisiae ABC16-Green Monster assay, compound CC[C@@H]([C@H](C)O)n1ncn(-c2ccc(N3CCN(c4ccc(OC[C@@H]5CO[C@@](Cn6cncn6)(c6ccc(F)cc6F)C5)cc4)CC3)cc2)c1=O , log10 IC50 growth inhibition = 1.70

Lab entry: Saccharomyces cerevisiae ABC16-Green Monster assay, compound N#C/C(=C\c1cn(Cc2ccccc2)nc1-c1cccnc1)c1nc2ccccc2[nH]1 , log10 IC50 growth inhibition = 2.14

Lab entry: Saccharomyces cerevisiae ABC16-Green Monster assay, compound OCc1ccc(-c2cncc(Nc3cccc(Cl)c3)c2)cc1 , log10 IC50 growth inhibition = 0.80

Lab entry: Saccharomyces cerevisiae ABC16-Green Monster assay, compound CCCC(=O)NC(c1ccc(Cl)cc1)c1ccc2cccnc2c1O (centres undefined) , log10 IC50 growth inhibition = 1.75

Lab entry: Saccharomyces cerevisiae ABC16-Green Monster assay, compound Cc1cc(N(C)Cc2ccccc2Br)nc(N)n1 , log10 IC50 growth inhibition = 1.72

Lab entry: Saccharomyces cerevisiae ABC16-Green Monster assay, compound CC1(C)OB(O)c2cc(NC(=O)c3ccc(-n4cccn4)cc3Cl)ccc21 , log10 IC50 growth inhibition = -0.45

Lab entry: Saccharomyces cerevisiae ABC16-Green Monster assay, compound CCOc1ccc(-c2nc(CNCCc3ccc(F)cc3)cs2)cc1 , log10 IC50 growth inhibition = 1.63

Lab entry: Saccharomyces cerevisiae ABC16-Green Monster assay, compound Fc1ccc2[nH]c3c(N4CCN(C(c5ccccc5)c5ccccc5)CC4)ncnc3c2c1 , log10 IC50 growth inhibition = -0.14

---

IC50 growth inhibition reference
Test system: Saccharomyces cerevisiae ABC16-Green Monster
Conditions: 18 h; 30 °C; YPD
Note: unit µM is implicit; provide only the numeric part.

Answered examples (5):
| compound | unit_of_measurement | IC50 growth inhibition |
| --- | --- | --- |
| CN(C)CCNc1nc2sc3c(c2c(=O)n1Cc1ccco1)CCCCC3 | µM | 32.5 |
| Cc1cc(C(=O)NCCSc2ccccc2)c(C)n1C(C)C | µM | 60.5 |
| CCCOC(=O)C1=C(C)NC2=C(C(=O)CC(c3ccc(OC)c(OC)c3)C2)C1c1ccc(Cl)cc1Cl (stereo not given) | µM | 5.08 |
| COc1ccc2nc3cc(Cl)ccc3c(N(C)CCc3ccc(OC)c(OC)c3)c2c1 | µM | 27.2 |
| CN(CC=CC#CC(C)(C)C)Cc1cccc2ccccc12.Cl | µM | 76.9 |

Reported IC50 growth inhibition ( Nc1[nH]c(=O)ncc1F ) = 15.1

Reported IC50 growth inhibition ( CC(C)c1csc(NC(=O)c2cnn(-c3ccccc3F)c2C(F)(F)F)n1 ) = 31.3

Reported IC50 growth inhibition ( CN(C)c1cc(NC(=O)Nc2ccccc2)c2ccccc2n1 ) = 39.4

Reported IC50 growth inhibition ( O=C(c1ccco1)N(CCCn1ccnc1)c1nc2c(Cl)cccc2s1 ) = 40.8

Reported IC50 growth inhibition ( CN(CC1COc2ccccc2O1)C(=O)Nc1nc2ccccc2s1 (stereo not given) ) = 48

Reported IC50 growth inhibition ( CCCCCc1nnc(NC(=O)c2nccnc2N)s1 ) = 74.2

Reported IC50 growth inhibition ( O=C(C(Cc1c[nH]c2ccccc12)NS(=O)(=O)c1ccc(Cl)cc1)N1CCCCC1 (stereo not given) ) = 42.4

Reported IC50 growth inhibition ( COCC1OC(=O)c2coc3c2C1(C)C1=C(C3=O)C2CCC(=O)C2(C)CC1OC(C)=O (stereo not given) ) = 27.7

Reported IC50 growth inhibition ( CN1CCN(S(=O)(=O)c2ccc(-c3ccc4c(Nc5ncc(Cl)cn5)ccnc4c3)cc2)CC1 ) = 43.4

Reported IC50 growth inhibition ( COc1ccc2cc(CN(C)CC(=O)Nc3sccc3C(N)=O)ccc2c1 ) = 60.6

Reported IC50 growth inhibition ( C=CCc1ccc(O)c(-c2ccc(O)c(CC=C)c2)c1 ) = 13.2

Reported IC50 growth inhibition ( C=CCc1c(C)nc2c(-c3ccccc3)cnn2c1N1CCN(CCO)CC1 ) = 62.8

Reported IC50 growth inhibition ( CS(=O)(=O)CCNCc1ccc(-c2ccc3ncnc(Nc4ccc(OCc5cccc(F)c5)c(Cl)c4)c3c2)o1 ) = 5.96

---

Tested on: Saccharomyces cerevisiae ABC16-Green Monster
Conditions: 18 h; 30 °C; YPD
recorded_metric: IC50 growth inhibition (nM)
Note: unit nM is implicit; provide only the numeric part.

Reported IC50 growth inhibition ( O=C(NC1CC1)c1ccc(N2CCOc3ccc(Cl)cc32)s1 ) = 32600

---

Tested on: Saccharomyces cerevisiae ABC16-Green Monster
Settings: 18 h; 30 °C; YPD
Mark Met only when IC50 growth inhibition stays strictly below 20 µM. Values equal to the cut-off are Not met.

| compound | classification |
| --- | --- |
| CCOc1ccc(C(=O)CN(C#N)C(=O)c2ccccc2)cc1 | Not met |
| O=C(c1c[nH]c(-c2ccnc(N3CCCC3)c2)c1)c1ccccc1O | Not met |
| OC1=C2C(=Nc3ccccc3SC2c2ccco2)c2ccccc21 (stereo not given) | Met |
| O=C(NCCc1ccccc1)c1cc(-c2cccnc2)cnc1NCC1CC1 | Met |

**Q:** I'd appreciate it if you could check whether Cc1ccc(Oc2ccc(NC(=O)CNc3ccccc3N3CCCC3=O)cc2)cc1 has IC50 growth inhibition smaller than 20 µM.
**A:** Not met

---

Tested on: Saccharomyces cerevisiae ABC16-Green Monster
Conditions: 18 h; 30 °C; YPD
Mark yes only when IC50 growth inhibition stays strictly below 90 µM. Values equal to the cut-off are no.

| compound | classification |
| --- | --- |
| CNc1ncc2cc(-c3cc(NC(=O)NCCC(C)(C)C)c(F)cc3C)c(C)nc2n1 [DP-4978] | no |

**Q:** I'd appreciate it if you could check whether CN(Cc1nc(N)c2c3c(sc2n1)CCCC3)Cc1cccs1 has IC50 growth inhibition smaller than 90 µM.
**A:** no

**Q:** I'd appreciate it if you could check whether CCN1C(=Cc2cc(C)[n+](CCCN3CCOCC3)c(C)c2)Sc2ccccc21 has IC50 growth inhibition smaller than 90 µM.
**A:** yes

**Q:** I'd appreciate it if you could check whether CC1=NN(c2nc3ccccc3[nH]2)C(=O)C1Cc1ccccc1 (centres undefined) [CBR110] has IC50 growth inhibition smaller than 90 µM.
**A:** yes

**Q:** I'd appreciate it if you could check whether Cn1cc(CN2CCc3c(c(C(=O)NCc4nccs4)nn3Cc3ccccc3)C2)c2ccccc21 has IC50 growth inhibition smaller than 90 µM.
**A:** no

**Q:** I'd appreciate it if you could check whether COc1cccc(-n2nnnc2S(C)(=O)=O)c1 has IC50 growth inhibition smaller than 90 µM.
**A:** yes

**Q:** I'd appreciate it if you could check whether COc1ccc(Cn2cnc3c(-c4ccco4)nc(Cl)nc32)cc1 has IC50 growth inhibition smaller than 90 µM.
**A:** yes

---

System: Saccharomyces cerevisiae ABC16-Green Monster
Conditions: 18 h; 30 °C; YPD
recorded_metric: IC50 growth inhibition

Answered examples (8):
| compound | recorded_metric | reported_result |
| --- | --- | --- |
| Cc1ccc(S(=O)(=O)n2cc(-c3ccnc(N)c3)c3cc(Br)cnc32)cc1 | IC50 growth inhibition | 6.17 µM |
| FC(F)(F)c1ccc(N(c2cccnc2)C2CCN(c3ccc(C(F)(F)F)cn3)CC2)cc1 | IC50 growth inhibition | 40 µM |
| COc1ccc(/C=C/c2ccc3c(Cl)cc(Cl)c(O)c3n2)cc1 | IC50 growth inhibition | 22.3 µM |
| COC1OC2OC3(C)CCC4C(C)CCC(C1C)C24OO3 (centres undefined) [Artemether] | IC50 growth inhibition | 70.6 µM |
| FC(F)(F)c1cccc(-c2nc3c(NCc4ccncc4)nccc3[nH]2)c1 | IC50 growth inhibition | 41.6 µM |
| Brc1ccc(Nc2nc3ccccc3nc2Nc2ccc(Br)cc2)cc1 | IC50 growth inhibition | 2.31 µM |
| C=CCn1c(C)cc(C(=O)CSc2nc3ccccc3[nH]2)c1C | IC50 growth inhibition | 4.24 µM |
| O=C(O)c1ccc2c(c1)nc(Nc1cccc(Cl)c1)c1ccncc12 [Silmitasertib] | IC50 growth inhibition | > 75 µM |

Reported IC50 growth inhibition ( CN(C(=O)c1cc2c(-c3cncnc3)cccc2[nH]1)c1ccccc1 ) = 26.3 µM

Reported IC50 growth inhibition ( Cc1cc(NS(=O)(=O)c2ccc(Nc3nc(-c4ccc(Cl)c(Cl)c4)cs3)cc2)no1 [CBR410] ) = 4.87 µM

Reported IC50 growth inhibition ( Cc1cc(NCCc2ccccc2)nc(NC(=N)Nc2ccc(Cl)cc2)n1 ) = 53.8 µM

Reported IC50 growth inhibition ( CC1(C)c2nc(-c3ccc(F)cc3)c(Nc3ccc(Cl)cc3)n2CCN1C(=O)CN [GNF179] ) = 38 µM

Reported IC50 growth inhibition ( CN(C)c1ccc(C(O)(c2ccc(N(C)C)cc2)c2ccc(N(C)C)cc2)cc1 ) = 0.317 µM

Reported IC50 growth inhibition ( Oc1ccc(C(=C(Cl)Cl)c2ccc(O)cc2)cc1 ) = 6.96 µM

Reported IC50 growth inhibition ( Cc1c(N)nc(C(CC(N)=O)NCC(N)C(N)=O)nc1C(=O)NC(C(=O)NC(C)C(O)C(C)C(=O)NC(C(=O)NCCc1nc(-c2nc(C(=O)NCCC[S+](C)C)cs2)cs1)C(C)O)C(OC1OC(CO)C(O)C(O)C1OC1OC(CO)C(O)C(OC(N)=O)C1O)c1cnc[nH]1 (centres undefined) [Bleomycin (JP1)] ) = > 75 µM

Reported IC50 growth inhibition ( CN1CCC(NCc2cccc(-c3ccc(S(=O)(=O)NCc4ccccc4)cc3)c2)CC1 ) = 50.8 µM

Reported IC50 growth inhibition ( COc1cc(-c2cc(-c3ccc(S(C)(=O)=O)cc3)cnc2N)ccc1O ) = 22 µM

Reported IC50 growth inhibition ( CC1=Nn2cc(-c3ccccc3)nc2SC1c1ccccc1 (centres undefined) ) = 64.2 µM

Reported IC50 growth inhibition ( CC1(C)C2CCC(C2)C1(C)NC(=S)NN=Cc1ccccn1 (centres undefined) [GNF-Pf-5458] ) = 3.1 µM
